Test system: VDR:RXRa (NR concentration 270 nM, RXRa partner concentration 90 nM)
Assay: PBM binding z-score (relative to random genomic background probes); higher = stronger binding; sequences stand for … in GC…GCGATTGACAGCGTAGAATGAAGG
readoutName: PBM binding z-score
I only need the number, thanks.

>>> experimentalresult("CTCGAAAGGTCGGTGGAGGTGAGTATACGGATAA")
1.79
>>> experimentalresult("ATCTCTAGGTAACAAGTTCAGTGACAGAGAGGAC")
1.97
>>> experimentalresult("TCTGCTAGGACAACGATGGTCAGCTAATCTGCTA")
-0.784
>>> experimentalresult("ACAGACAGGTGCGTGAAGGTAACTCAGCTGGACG")
-0.488
>>> experimentalresult("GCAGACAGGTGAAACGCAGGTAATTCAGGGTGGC")
-0.324
>>> experimentalresult("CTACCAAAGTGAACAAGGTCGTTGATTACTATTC")
3.07
>>> experimentalresult("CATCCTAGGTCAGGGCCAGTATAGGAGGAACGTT")
0.731
>>> experimentalresult("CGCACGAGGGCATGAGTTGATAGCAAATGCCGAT")
1.27
>>> experimentalresult("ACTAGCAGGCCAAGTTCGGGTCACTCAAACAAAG")
2.43
>>> experimentalresult("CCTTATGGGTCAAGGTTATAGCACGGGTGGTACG")
2.45

Inquiry: I'd like to know its PBM binding z-score. The sequence in question is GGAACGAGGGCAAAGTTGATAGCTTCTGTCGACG
Reply text: 1.09

Inquiry: What does the data say about its PBM binding z-score? Entry: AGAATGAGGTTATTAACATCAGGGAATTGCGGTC
Reply text: 1.31

Inquiry: Entry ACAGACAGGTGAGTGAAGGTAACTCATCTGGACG has what PBM binding z-score?
Reply text: -0.347

Inquiry: Any idea what PBM binding z-score was measured for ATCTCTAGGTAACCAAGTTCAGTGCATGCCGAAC ?
Reply text: 4.21

Inquiry: Would you kindly share the measured PBM binding z-score for TCACCAAGGTGAGCTGAGGTCGTTGATCCAACTC ?
Reply text: 3.97

Inquiry: Name the recorded PBM binding z-score for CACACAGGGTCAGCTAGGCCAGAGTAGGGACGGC .
Reply text: 3.8

Inquiry: Give its PBM binding z-score value. Item: ATCGAAAGGTCGTGATGTGAGTATACAGAAAGGC
Reply text: 2.98

Inquiry: Name the reported PBM binding z-score value associated with the sequence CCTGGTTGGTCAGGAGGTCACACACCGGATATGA
Reply text: 3.73

---

Test system: RARa:RXR (NR concentration 270 nM, RXRa partner concentration 90 nM)
Test: PBM binding z-score (relative to random genomic background probes); higher = stronger binding; sequences stand for … in GC…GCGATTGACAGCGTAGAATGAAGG
Documented PBM binding z-score across a set of sequences
// response body must contain only the number

Past entries and their recorded results:
>>> experimentalresult("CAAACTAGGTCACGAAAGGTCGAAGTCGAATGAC")
5.45
>>> experimentalresult("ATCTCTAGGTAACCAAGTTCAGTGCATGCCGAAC")
1.03
>>> experimentalresult("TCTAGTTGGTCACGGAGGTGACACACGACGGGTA")
0.781

Inquiry: Which PBM binding z-score value belongs to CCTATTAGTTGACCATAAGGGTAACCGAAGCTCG ?
Reply text: 0.834

Inquiry: # PBM binding z-score lookup, item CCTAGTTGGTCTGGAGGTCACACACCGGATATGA
Reply text: 5.16

Inquiry: Requested field: PBM binding z-score. Item: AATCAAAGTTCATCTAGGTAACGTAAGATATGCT
Reply text: 3.24

---

Known PBM binding z-score of a selection of sequences
Test system: RARb:RXRa (NR concentration 270 nM, RXRa partner concentration 90 nM)
Assay: PBM binding z-score (relative to random genomic background probes); higher = stronger binding; sequences stand for … in GC…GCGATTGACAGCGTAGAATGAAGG
Lab note: write the figure by itself, no unit.

Inquiry: For the sequence shown here, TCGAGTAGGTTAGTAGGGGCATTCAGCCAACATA , give the reported PBM binding z-score.
Reply text: 0.637

Inquiry: Item under review: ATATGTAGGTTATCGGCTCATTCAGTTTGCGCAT . Reported PBM binding z-score?
Reply text: 0.662

Inquiry: Which PBM binding z-score reading was recorded for the sequence TCTTGTAGATCAGCAGGTTATGAAAGCTGGCCAA ?
Reply text: 0.164

Inquiry: Report PBM binding z-score for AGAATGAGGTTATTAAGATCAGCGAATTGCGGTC please.
Reply text: 1.27

Inquiry: What does the data say about its PBM binding z-score? Entry: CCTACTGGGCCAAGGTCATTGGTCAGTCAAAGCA
Reply text: 3.56

Inquiry: Given the entry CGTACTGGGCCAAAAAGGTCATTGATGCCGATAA , report its measured PBM binding z-score.
Reply text: 3.87

---

Reported PBM binding z-score by item:
Tested on: LXRa homodimer (NR concentration 270 nM)
Assay: PBM binding z-score (relative to random genomic background probes); higher = stronger binding; sequences stand for … in GC…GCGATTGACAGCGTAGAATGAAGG
Give your answer as a number; write no unit.

>>> experimentalresult("TCTAGTTGGTCAAAGTTCACACACTCGAAATGCG")
4.63
>>> experimentalresult("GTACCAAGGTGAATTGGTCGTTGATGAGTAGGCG")
-0.495
>>> experimentalresult("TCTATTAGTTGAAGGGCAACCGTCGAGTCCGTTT")
0.368
>>> experimentalresult("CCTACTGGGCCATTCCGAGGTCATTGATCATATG")
4.85
>>> experimentalresult("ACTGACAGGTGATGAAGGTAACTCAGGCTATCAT")
-0.445

Inquiry: GET /values?readout=PBM binding z-score&item= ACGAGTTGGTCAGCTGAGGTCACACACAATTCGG
Reply text: 1.81

Inquiry: Name the recorded PBM binding z-score for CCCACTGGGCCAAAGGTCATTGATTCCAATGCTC .
Reply text: 4.26

Inquiry: Look at this sequence and give its reported PBM binding z-score. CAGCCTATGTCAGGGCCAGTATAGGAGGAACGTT
Reply text: -0.136

Inquiry: Report PBM binding z-score for ACTAGCAGGCCAAGTGTGGGTCACTCAAACAAAG please.
Reply text: -0.486

Inquiry: Which value of PBM binding z-score has been reported for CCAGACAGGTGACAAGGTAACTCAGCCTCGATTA in the records?
Reply text: -0.212

Inquiry: Please give the measured PBM binding z-score for this sequence: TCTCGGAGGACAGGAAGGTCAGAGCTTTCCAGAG
Reply text: 0.00105

Inquiry: Please look up its PBM binding z-score: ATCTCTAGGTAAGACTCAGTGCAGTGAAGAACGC
Reply text: 0.212

Inquiry: // returns reported PBM binding z-score for input CCAGACAGGTGAAGGGTAACTCAGTCTGGTACGC
Reply text: -0.524

---

System: VDR homodimer (NR concentration 270 nM)
Test: PBM binding z-score (relative to random genomic background probes); higher = stronger binding; sequences stand for … in GC…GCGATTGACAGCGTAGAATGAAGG
readoutName: PBM binding z-score
Could you keep your reply to the number by itself?

>>> experimentalresult("CAAACTAGGTCACAGAGGTCAAAATCCGTGCGTA")
5.94

Note: attention shifts to another entry.
Inquiry: Under VDR homodimer (NR concentration 270 nM): PBM binding z-score value of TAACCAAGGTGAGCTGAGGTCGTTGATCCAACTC ?
Reply text: 1.81

---

Tested on: LXRa homodimer (NR concentration 270 nM)
Experiment: PBM binding z-score (relative to random genomic background probes); higher = stronger binding; sequences stand for … in GC…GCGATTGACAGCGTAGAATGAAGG
readoutName: PBM binding z-score
Please state the value as a number alone, without comment.

Illustrative cases are given below, each with its answer.
>>> experimentalresult("AGCTCTAGGTAAAGATAGTTCAGTGAATGCAAAT")
0.0998
>>> experimentalresult("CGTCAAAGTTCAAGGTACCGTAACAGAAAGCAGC")
3.11

Inquiry: For the sequence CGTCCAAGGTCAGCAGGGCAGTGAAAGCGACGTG , what PBM binding z-score is on record?
Reply text: -0.203

---

Test system: PPARg:RXRa 90nM:30nM, anti-RXR (NR concentration 90 nM, RXRa partner concentration 30 nM)
Experiment: PBM binding z-score (relative to random genomic background probes); higher = stronger binding; sequences stand for … in GC…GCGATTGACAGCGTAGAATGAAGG
readoutName: PBM binding z-score
Please give only the number in your answer, with no unit.

>>> experimentalresult("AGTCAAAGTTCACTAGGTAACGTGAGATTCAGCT")
5.47

Inquiry: Give the measured PBM binding z-score of TCGAGTAGGTTAGGGGAATTCAGAATGGCGTCGA .
Reply text: 1.18

Inquiry: Which value of PBM binding z-score has been reported for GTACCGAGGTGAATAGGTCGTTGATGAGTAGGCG in the records?
Reply text: 0.886

Inquiry: PBM binding z-score lookup needed for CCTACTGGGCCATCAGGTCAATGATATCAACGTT , thanks.
Reply text: 2.76

Inquiry: # query: PBM binding z-score of entry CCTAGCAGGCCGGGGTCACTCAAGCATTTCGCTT
Reply text: 2.54

Inquiry: Endpoint output: PBM binding z-score of TCATATAGGTAAAGGTGTAAGTCGAACGATATGA . Value?
Reply text: 4.1
